systemTested: A1PI (Homo sapiens, UniProt P01009)
Construct: Human plasma is currently the only approved source of therapeutic AlPI
Sequence (P01009 25-418): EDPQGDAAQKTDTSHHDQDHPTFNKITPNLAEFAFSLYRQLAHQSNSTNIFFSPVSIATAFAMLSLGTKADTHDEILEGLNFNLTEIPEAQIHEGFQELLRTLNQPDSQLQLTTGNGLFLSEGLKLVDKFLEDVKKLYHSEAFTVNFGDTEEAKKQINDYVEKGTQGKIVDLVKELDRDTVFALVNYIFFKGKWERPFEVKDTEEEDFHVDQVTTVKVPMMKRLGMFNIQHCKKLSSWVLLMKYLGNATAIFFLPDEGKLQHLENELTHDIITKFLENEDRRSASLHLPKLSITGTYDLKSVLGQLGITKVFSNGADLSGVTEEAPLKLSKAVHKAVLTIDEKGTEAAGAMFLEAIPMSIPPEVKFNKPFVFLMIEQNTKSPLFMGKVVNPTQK
assayDetails: A1PI binding on peptide-resin column, injection of 1 mg A1PI in equilibration buffer
conditionSummary: sequence order; 1 mg AlPI, 20° C.
Ends that are not written are not given here.
quantityName: Percent AlPI Eluted by Fraction, Flowthrough (%)
State the answer as a number, implicitly in %.

# substance, readoutUnits, assayResult
records = [
    ("Ac-RVLFIV: N-terminal acetylated Ac-RVLFIV (listed under SEQ ID No:61)", "%", 19),
]

Prompt line: Consider the substance RVLFIV: reversed sequence of VIFLVR and give its measured Percent AlPI Eluted by Fraction, Flowthrough.
Response line: 7

Prompt line: Consider the substance VIFLVR and give its measured Percent AlPI Eluted by Fraction, Flowthrough.
Response line: 0

Prompt line: Consider the substance RVLFIH: reversed sequence of VIFLVR with C-terminal His and give its measured Percent AlPI Eluted by Fraction, Flowthrough.
Response line: 0

---

systemTested: A1PI (Homo sapiens)
Construct: Human plasma is currently the only approved source of therapeutic AlPI
assayDetails: A1PI yield from dialyzed (aqueous) Effluent II+III
Format: binding
conditionSummary: A1PI; 1 ml dialyzed Eff. II+III, 4° C.
Ends that are not written are not given here.
quantityName: Percent Eluted by Fraction, Flowthrough (%)
State the answer as a number, implicitly in %.

# substance, systemTested, Percent Eluted by Fraction, Flowthrough (%)
data = [
    ("VIWLVR", "A1PI (Homo sapiens)", 39),
    ("IIWLYK", "A1PI (Homo sapiens)", 31),
    ("ARWYIH", "A1PI (Homo sapiens)", 39),
    ("VIFLVR", "A1PI (Homo sapiens)", 36),
    ("RYRIFI", "A1PI (Homo sapiens)", 35),
]

// next item, Percent Eluted by Fraction, Flowthrough requested
Prompt line: Consider the substance VIYLVR: VIWLVR with Trp at position 3 replaced by Tyr and give its measured Percent Eluted by Fraction, Flowthrough.
Response line: 62

---

systemTested: A1PI (Homo sapiens, UniProt P01009)
Construct: Human plasma is currently the only approved source of therapeutic AlPI
assayDetails: A1PI binding on peptide-resin column, injection of 1 mg A1PI in equilibration buffer
conditionSummary: VIWLVR N-terminal point mutations; 1 mg A1PI, 4° C.
Ends that are not written are not given here.
quantityName: % of Total A1PI Eluted by Fraction (Based on Absorbance at 280 nm), 1M NaCl (%)
State the answer as a number, implicitly in %.

Prompt line: Consider the substance HDWLVR: point mutation of VIWLVR on Ala-Totda-Toyopearl (not fully specified (C-terminus)) and give its measured % of Total A1PI Eluted by Fraction (Based on Absorbance at 280 nm), 1M NaCl.
Response line: 30

Prompt line: Consider the substance NHWLVR: point mutation of VIWLVR on Ala-Totda-Toyopearl (not fully specified (C-terminus)) and give its measured % of Total A1PI Eluted by Fraction (Based on Absorbance at 280 nm), 1M NaCl.
Response line: 83

Prompt line: Consider the substance SDWLVR: point mutation of VIWLVR on Ala-Totda-Toyopearl (not fully specified (C-terminus)) and give its measured % of Total A1PI Eluted by Fraction (Based on Absorbance at 280 nm), 1M NaCl.
Response line: 1

---

systemTested: A1PI (Homo sapiens)
Construct: Human plasma is currently the only approved source of therapeutic AlPI
assayDetails: Capture and elution of active A1PI with 2M urea buffer (elastase inhibition activity assay and immunonephelometry)
Type: binding
conditionSummary: mass of A1PI by activity assay relative to immunonephelometry; urea eluate, 4° C.
Ends that are not written are not given here.
quantityName: Specific Activity (mg/mg)
State the answer as a number, implicitly in mg/mg.

Sample answers from the record:
# substance, systemTested, readoutUnits, assayResult
records = [
    ("RAFWYI", "A1PI (Homo sapiens)", "mg/mg", 0.87),
    ("LIVHRW", "A1PI (Homo sapiens)", "mg/mg", 0.88),
    ("RFIYYT", "A1PI (Homo sapiens)", "mg/mg", 0.84),
    ("PYWIVR", "A1PI (Homo sapiens)", "mg/mg", 0.75),
    ("RVLFIH: reversed sequence of VIFLVR with C-terminal His", "A1PI (Homo sapiens)", "mg/mg", 0.79),
]

Prompt line: Consider the substance VIFLVR and give its measured Specific Activity.
Response line: 0.81

Prompt line: Consider the substance RYRIFI and give its measured Specific Activity.
Response line: 0.86

---

systemTested: A1PI (Homo sapiens, UniProt P01009)
Construct: Human plasma is currently the only approved source of therapeutic AlPI
assayDetails: Purification of A1PI from Effluent II+III on peptide column, A1PI mass balance
Type: binding
conditionSummary: Table 11; A1PI; 1 ml Eff. II+III, 4° C.
Method: Sequences 1-11 and 15 were assayed with Effluent II+III (Eff. II+III). Eff. II+III is a process intermediate in the Cohn plasma fractionation process. The feed stream contains 20% (by volume) ethanol, 20-25 mg/ml hSA and approximately 1 mg/ml AlPI. […]
Ends that are not written are not given here.
Binary classification by Percent Eluted by Fraction, 2% Acetic Acid, with 50% as an inclusive lower bound for yes; all other cases are no.

Example entries and their recorded answers appear below.
# substance, answerLabel
records = [
    ("VIWLVR", "no"),
    ("VIYLVR: VIWLVR with Trp at position 3 replaced by Tyr", "yes"),
    ("V I A L V R: VIWLVR with Trp at position 3 replaced by Ala (VIALVR)", "yes"),
]

Then this substance:
Prompt line: Form field: Percent Eluted by Fraction, 2% Acetic Acid at least 50%? Entry: V I L L V R: VIWLVR with Trp at position 3 replaced by Leu (VILLVR)
Response line: yes

---

systemTested: apolipoprotein alpha-1 (Apo A-1) (Homo sapiens, UniProt P02647)
Construct: Eff; II+III is a process intermediate in the Cohn plasma fractionation process; tissue Bayer Corporation (Clayton, N.C.); host or cells: plasma fraction: Cohn Effluent II+III
Sequence (P02647 19-267): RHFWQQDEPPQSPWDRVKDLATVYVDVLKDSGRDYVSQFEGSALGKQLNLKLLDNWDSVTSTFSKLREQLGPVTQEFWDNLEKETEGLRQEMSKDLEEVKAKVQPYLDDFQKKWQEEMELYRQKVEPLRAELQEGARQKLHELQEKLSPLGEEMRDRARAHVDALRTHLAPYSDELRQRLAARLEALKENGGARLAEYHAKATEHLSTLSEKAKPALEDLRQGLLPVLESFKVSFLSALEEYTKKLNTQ
assayDetails: Purification from Effluent II+III, Apo A-1 mass balance
Format: binding
conditionSummary: 1 ml Eff. II+III, 4° C.
Ends that are not written are not given here.
quantityName: Percent Eluted by Fraction, Flow
Number plus unit, in that order.

Sample answers from the record:
# substance, Percent Eluted by Fraction, Flow
rows = [
    ("YKFRFW", "0%"),
    ("ARWYIH", "0%"),
    ("PYWIVR", "40%"),
    ("VIWLVR", "52%"),
    ("IIWLYK", "0%"),
]

Prompt line: Consider the substance RAFWYI and give its measured Percent Eluted by Fraction, Flow.
Response line: 0%

---

systemTested: A1PI (Homo sapiens)
Construct: Human plasma is currently the only approved source of therapeutic AlPI
assayDetails: A1PI binding on peptide-resin column, injection of 1 mg A1PI in equilibration buffer
conditionSummary: VIWLVR N-terminal point mutations; 1 mg A1PI, 4° C.
Ends that are not written are not given here.
Here, each record is paired with measured % of Total A1PI Eluted by Fraction (Based on Absorbance at 280 nm), Flowthrough data.
Number plus unit, in that order.

Sample answers from the record:
# substance, assayResult
records = [
    ("NSWLVR: point mutation of VIWLVR on Ala-Totda-Toyopearl (not fully specified (C-terminus))", "52%"),
    ("DNWLVR: point mutation of VIWLVR on Ala-Totda-Toyopearl (not fully specified (C-terminus))", "90%"),
    ("DSWLVR: point mutation of VIWLVR on Ala-Totda-Toyopearl (not fully specified (C-terminus))", "90%"),
    ("SHWLVR: point mutation of VIWLVR on Ala-Totda-Toyopearl (not fully specified (C-terminus))", "0%"),
    ("HSWLVR: point mutation of VIWLVR on Ala-Totda-Toyopearl (not fully specified (C-terminus))", "0%"),
    ("NHWLVR: point mutation of VIWLVR on Ala-Totda-Toyopearl (not fully specified (C-terminus))", "0%"),
]

Prompt line: Give recorded % of Total A1PI Eluted by Fraction (Based on Absorbance at 280 nm), Flowthrough with A1PI (Homo sapiens) for the following substance: HDWLVR: point mutation of VIWLVR on Ala-Totda-Toyopearl (not fully specified (C-terminus))
Response line: 70%

---

Here, each record is paired with measured Mass Protein per Eluate Fraction, 1M NaCl data.
systemTested: A1PI (Homo sapiens)
Construct: Human plasma is currently the only approved source of therapeutic AlPI
assayDetails: A1PI purification from 5 mg hSA + 1 mg A1PI on peptide column, A1PI mass balance
Format: binding
conditionSummary: A1PI; 5 mg hSA + 1 mg A1PI, 4° C.; * Below detection limit
Ends that are not written are not given here.
State the answer as a number, implicitly in mg.

# substance, assayResult
data = [
    ("VIWLVR", 0.20),
    ("RYRIFI", 0.27),
    ("RAFWYI", 0.19),
    ("PYWIVR", 0.31),
    ("IIWLYK", 0.10),
    ("WKLWRW", 0.44),
    ("RFIYYT", 0.27),
    ("IWRKYS", 0.68),
]

Prompt line: Consider the substance ARWYIH and give its measured Mass Protein per Eluate Fraction, 1M NaCl.
Response line: 0.33

Prompt line: Consider the substance RLWRYG and give its measured Mass Protein per Eluate Fraction, 1M NaCl.
Response line: 0.50

Prompt line: Consider the substance QYHFWY and give its measured Mass Protein per Eluate Fraction, 1M NaCl.
Response line: 0.35

Prompt line: Consider the substance LIVHRW and give its measured Mass Protein per Eluate Fraction, 1M NaCl.
Response line: 0.40

Prompt line: Consider the substance YKFRFW and give its measured Mass Protein per Eluate Fraction, 1M NaCl.
Response line: 0.28
